Reported pIC50 values follow for various compounds
# Target Of Assay: Recombinant human Src (Homo sapiens)
# Construct: made in house; host or cells: baculovirus-insect cell system
# Assay Protocol: Src tyrosine kinase activity assay with poly E4Y and 32P-ATP
# Assay type: biochemical
# Conditions: poly E4Y, 32P-ATP; NI = no inhibition; read-out: IC50 Value Src
pIC50: −log10 of the molar value.

Smiles Representation | pIC50
CCOc1ccccc1-c1sc2c(NN=Cc3[nH]cnc3C)ncnc2c1O | 8.30
CCOc1ccccc1-c1sc2c(NN=Cc3ccc(OC)c(OC)c3)ncnc2c1C | 8.34
CCOc1ccccc1-c1sc2c(NN=Cc3ccc4c(c3)OCCO4)ncnc2c1C | 8.19
COc1ccc(C=NNc2ncnc3c(C)c(-c4ccc(N)cc4)sc23)cc1O | 8.06

###

# Target Of Assay: Recombinant human Src (Homo sapiens)
# Construct: made in house; host or cells: baculovirus-insect cell system
# Assay Protocol: Src tyrosine kinase activity assay with poly E4Y and 32P-ATP
# Format: biochemical
# Conditions: poly E4Y, 32P-ATP; NI = no inhibition; read-out: IC50 Value Src
pIC50: −log10 of the molar value.

Smiles Representation | pIC50
CCOc1ccccc1-c1sc2c(NN=Cc3cc(O)c(OC)c(OC)c3)ncnc2c1O | 8.89
CCOc1ccccc1-c1sc2c(NN=Cc3ccc(O)c(Cl)c3)ncnc2c1O | 8.38
CCOc1ccccc1-c1sc2c(NN=Cc3ccc(O)c(OC)c3)ncnc2c1C#N | 8.85
COc1ccc(C=NNc2ncnc3c(C)c(-c4ccc(CN5CCOCC5)cc4)sc23)cc1O | 8.26

###

Reported pIC50 values follow for various compounds
# Target Of Assay: Recombinant Csk (Homo sapiens)
# Construct: GST ('glutathione-5-transferase' [sic])
# Sequence (P41240 whole entry, species assumed): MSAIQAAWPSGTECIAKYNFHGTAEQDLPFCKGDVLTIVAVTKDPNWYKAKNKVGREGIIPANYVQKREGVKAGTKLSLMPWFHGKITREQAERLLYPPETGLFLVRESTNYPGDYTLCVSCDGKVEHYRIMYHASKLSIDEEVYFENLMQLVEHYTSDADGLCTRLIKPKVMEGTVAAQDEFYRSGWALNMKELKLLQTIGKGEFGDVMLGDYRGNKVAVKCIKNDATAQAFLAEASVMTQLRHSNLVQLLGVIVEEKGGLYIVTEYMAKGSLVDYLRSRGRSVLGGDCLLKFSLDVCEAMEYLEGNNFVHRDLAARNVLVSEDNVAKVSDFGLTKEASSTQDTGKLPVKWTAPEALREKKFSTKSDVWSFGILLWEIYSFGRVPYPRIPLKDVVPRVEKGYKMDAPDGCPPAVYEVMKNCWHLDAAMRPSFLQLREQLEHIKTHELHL
# Assay Protocol: Csk tyrosine kinase activity assay with poly E4Y and 32P-ATP
# Conditions: NI = no inhibition
pIC50: −log10 of the molar value.
Readout Type: pIC50

Smiles Representation | Readout Type | Measured Number
CCOc1ccccc1-c1sc2c(NN=Cc3cccc(C(=O)O)c3)ncnc2c1O | pIC50 | 5.15
CCCOc1ccccc1-c1sc2c(NN=Cc3cccs3)ncnc2c1O | pIC50 | 4.75
CCOc1ccccc1-c1sc2c(NN=Cc3cc(Br)c(O)c(OC)c3)ncnc2c1O | pIC50 | 5.54
COc1ccc(C=NNc2ncnc3c(C)c(-c4ccc(CN5CCOCC5)cc4)sc23)cc1O | pIC50 | 3.99

###

# Target Of Assay: Recombinant human Src (Homo sapiens)
# Construct: made in house; host or cells: baculovirus-insect cell system
# Assay Protocol: Src tyrosine kinase activity assay with poly E4Y and 32P-ATP
# Type: biochemical
# Conditions: poly E4Y, 32P-ATP; NI = no inhibition; read-out: IC50 Value Src
// NB: equality with 20 nM counts as not satisfied; only IC50 strictly below is satisfied

Compound | Assigned Class
CCOc1ccccc1-c1sc2c(NN=Cc3ccc(C)s3)ncnc2c1C#N [compound 126] | satisfied
CCOc1ccccc1-c1sc2c(NN=Cc3cccs3)ncnc2c1CO [Compound 71] | not satisfied
CCOc1ccccc1-c1sc2c(NN=Cc3cccc(C(=O)O)c3)ncnc2c1C#N [compound 114] | satisfied
CCOCc1c(-c2ccccc2OCC)sc2c(NN=Cc3ccc(OC)c(O)c3)ncnc12 [Compound 44] | not satisfied
CCOc1cc(F)ccc1-c1sc2c(NN=Cc3cccs3)ncnc2c1C#N [compound 108] | satisfied
C=CCOc1ccccc1-c1sc2c(NN=Cc3ccc(OC)c(O)c3)ncnc2c1C [Compound 80] | satisfied
CCOc1cc(F)ccc1-c1sc2c(NN=Cc3cccs3)ncnc2c1C [Compound 106] | satisfied
CCOc1ccccc1-c1sc2c(NN=Cc3ncc[nH]3)ncnc2c1O [Compound 97] | not satisfied
Cc1c(-c2cccc(C(=N)N)c2)sc2c(NN=Cc3cccnc3)ncnc12 [Compound 32] | not satisfied
COc1ccc(C=NNc2ncnc3c(C)c(-c4cccc(CN5CCOCC5)c4)sc23)cc1O [Compound 17] | not satisfied
CCOc1ccccc1-c1sc2c(NN=Cc3ccc(NC(C)=O)cc3)ncnc2c1C#N [compound 130] | satisfied
CCOc1ccccc1-c1sc2c(NN=Cc3ccc(C)s3)ncnc2c1O [Compound 128] | satisfied
CCOc1ccccc1-c1sc2c(NN=Cc3sccc3C)ncnc2c1C#N [compound 122] | satisfied
COc1ccc(C=NNc2ncnc3c(C)c(-c4cccc(N)c4)sc23)cc1O [Compound 12] | satisfied
Cc1c(-c2ccc(CN)cc2)sc2c(NN=Cc3cccnc3)ncnc12 [Compound 3] | not satisfied
Cc1c(-c2cccc(N)c2)sc2c(NN=Cc3cccnc3)ncnc12 [Compound 11] | satisfied
COc1ccc(C=NNc2ncnc3c(C)c(-c4ccc(C(N)=NO)cc4)sc23)cc1O [Compound 51] | satisfied
CCOc1ccccc1-c1sc2c(NN=Cc3ccc(OC)c(O)c3)ncnc2c1OC [Compound 40] | not satisfied

###

# Target Of Assay: FGF receptor (FGFr)
# Construct: fused on or other part: glutathione-S-transferase (GST) from the pGEX vector
# Assay Protocol: FGFr tyrosine kinase activity assay with poly E4Y and 32P-ATP
# Conditions: NI = no inhibition
pIC50: −log10 of the molar value.
Readout Type: pIC50

Smiles Representation | Measured Number
CCOc1ccccc1-c1sc2c(NN=Cc3cc(Br)c(O)c(OC)c3)ncnc2c1O | 5.72
CCCOc1ccccc1-c1sc2c(NN=Cc3cccs3)ncnc2c1O | 5.12
COc1ccc(C=NNc2ncnc3c(C)c(-c4ccc(CN5CCOCC5)cc4)sc23)cc1O | 3.99
CCOc1ccccc1-c1sc2c(NN=Cc3ccc(O)c(Cl)c3)ncnc2c1O | 4.56
CCOc1ccccc1-c1sc2c(NN=Cc3ccc(O)c(OC)c3)ncnc2c1O | 5.64

###

# Target Of Assay: Recombinant human Src (Homo sapiens, UniProt P12931)
# Construct: made in house; host or cells: baculovirus-insect cell system
# Sequence (P12931 whole entry): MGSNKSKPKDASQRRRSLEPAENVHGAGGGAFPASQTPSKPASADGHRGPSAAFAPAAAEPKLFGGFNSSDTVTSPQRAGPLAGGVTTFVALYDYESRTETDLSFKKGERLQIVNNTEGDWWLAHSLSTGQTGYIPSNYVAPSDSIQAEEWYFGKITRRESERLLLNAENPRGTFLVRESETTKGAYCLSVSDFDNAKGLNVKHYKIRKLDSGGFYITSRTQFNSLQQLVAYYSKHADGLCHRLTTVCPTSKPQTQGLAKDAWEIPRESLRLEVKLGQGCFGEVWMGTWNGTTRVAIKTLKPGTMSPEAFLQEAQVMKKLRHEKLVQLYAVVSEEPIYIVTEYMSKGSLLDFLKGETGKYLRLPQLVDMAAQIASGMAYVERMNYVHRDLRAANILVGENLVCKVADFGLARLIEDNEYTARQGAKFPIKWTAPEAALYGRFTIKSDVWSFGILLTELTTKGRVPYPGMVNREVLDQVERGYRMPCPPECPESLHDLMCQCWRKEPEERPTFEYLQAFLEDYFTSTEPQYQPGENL
# Assay Protocol: Src tyrosine kinase activity assay with poly E4Y and 32P-ATP
# Assay type: biochemical
# Conditions: poly E4Y, 32P-ATP; NI = no inhibition; read-out: IC50 Value Src
pIC50: −log10 of the molar value.
Readout Type: pIC50

Smiles Representation | Readout Type | Measured Number
COc1ccc(C=NNc2ncnc3c(C)c(-c4cccc(C(N)=NO)c4)sc23)cc1O | pIC50 | 7.72
CCOc1ccccc1-c1sc2c(NN=Cc3ccc(OC)c(O)c3)ncnc2c1O | pIC50 | 8.59
CCOc1cc(F)ccc1-c1sc2c(NN=Cc3cc(OC)c(OCCN(CC)CC)c(OC)c3)ncnc2c1C | pIC50 | 9.52
CCOc1ccccc1-c1sc2c(NN=Cc3ccc(O)cc3)ncnc2c1O | pIC50 | 8.80
CCOc1ccccc1-c1sc2c(NN=Cc3cc(O)c(OC)c(OC)c3)ncnc2c1C#N | pIC50 | 9.00
C=Cc1c(-c2ccccc2OCC)sc2c(NN=Cc3ccc(OC)c(O)c3)ncnc12 | pIC50 | 7.41
CCOc1ccccc1-c1sc2c(NN=Cc3ccc(C)o3)ncnc2c1C#N | pIC50 | 8.59
Cc1c(-c2cccc(C(N)=NO)c2)sc2c(NN=Cc3cccnc3)ncnc12 | pIC50 | 8.39

###

# Target Of Assay: Recombinant human Src (Homo sapiens, UniProt P12931)
# Construct: made in house; host or cells: baculovirus-insect cell system
# Assay Protocol: Src tyrosine kinase activity assay with poly E4Y and 32P-ATP
# Format: biochemical
# Conditions: poly E4Y, 32P-ATP; NI = no inhibition; read-out: IC50 Value Src
pIC50: −log10 of the molar value.
We use 8 as the dividing line for pIC50: on or above the line is criterion met, below is criterion not met.

Compound | Target Of Assay | Assigned Class
CCOc1ccccc1-c1sc2c(NN=Cc3ccc(OC)c(O)c3)ncnc2c1C#N | Recombinant human Src (Homo sapiens, UniProt P12931) | criterion met
COc1ccc(C=NNc2ncnc3c(C)c(-c4ccc(C(N)=O)cc4)sc23)cc1O | Recombinant human Src (Homo sapiens, UniProt P12931) | criterion not met
CCOc1ccccc1-c1sc2c(NN=Cc3ccc(C(=O)O)cc3)ncnc2c1CO | Recombinant human Src (Homo sapiens, UniProt P12931) | criterion not met
Cc1nc[nH]c1C=NNc1ncnc2c(C)c(CN3CCOCC3)sc12 | Recombinant human Src (Homo sapiens, UniProt P12931) | criterion not met
COc1ccc(C=NNc2ncnc3c(C)c(-c4ccc([N+](=O)[O-])cc4)sc23)cc1O | Recombinant human Src (Homo sapiens, UniProt P12931) | criterion not met
CCCOc1ccccc1-c1sc2c(NN=Cc3cccs3)ncnc2c1O | Recombinant human Src (Homo sapiens, UniProt P12931) | criterion met
CCOc1ccccc1-c1sc2c(NN=Cc3ccncc3)ncnc2c1O | Recombinant human Src (Homo sapiens, UniProt P12931) | criterion met
CCCOc1ccccc1-c1sc2c(NN=Cc3ccc(OC)c(O)c3)ncnc2c1C | Recombinant human Src (Homo sapiens, UniProt P12931) | criterion not met
COc1ccc(C=NNc2ncnc3c(C)c(-c4ccccc4N)sc23)cc1O | Recombinant human Src (Homo sapiens, UniProt P12931) | criterion not met
CCOc1ccccc1-c1sc2c(NN=Cc3cc(Br)c(O)c(OC)c3)ncnc2c1C#N | Recombinant human Src (Homo sapiens, UniProt P12931) | criterion met
Cc1c(-c2ccccc2OCc2ccccc2)sc2c(NN=Cc3cccnc3)ncnc12 | Recombinant human Src (Homo sapiens, UniProt P12931) | criterion not met
Cc1c(-c2ccc(O)cc2)sc2c(NN=Cc3ccc(C(=O)O)cc3)ncnc12 | Recombinant human Src (Homo sapiens, UniProt P12931) | criterion not met
CCOc1ccccc1-c1sc2c(NN=Cc3cc(OC)c(O)c(OC)c3)ncnc2c1C#N | Recombinant human Src (Homo sapiens, UniProt P12931) | criterion met
CCOc1ccccc1-c1sc2c(NN=Cc3ncc[nH]3)ncnc2c1C#N | Recombinant human Src (Homo sapiens, UniProt P12931) | criterion not met
CCOc1ccccc1-c1sc2c(NN=Cc3ccc(F)c(Cl)c3)ncnc2c1O | Recombinant human Src (Homo sapiens, UniProt P12931) | criterion not met
Cc1c(-c2ccc(N)cc2)sc2c(NN=Cc3cccs3)ncnc12 | Recombinant human Src (Homo sapiens, UniProt P12931) | criterion not met
COc1ccc(C=NNc2ncnc3c(C)c(-c4ccc(N(C)C)cc4)sc23)cc1O | Recombinant human Src (Homo sapiens, UniProt P12931) | criterion not met
CCOc1ccccc1-c1sc2c(NN=Cc3ccc(OC)cc3OC)ncnc2c1C | Recombinant human Src (Homo sapiens, UniProt P12931) | criterion not met
Cc1c(-c2ccc(C(N)=O)cc2)sc2c(NN=Cc3cccs3)ncnc12 | Recombinant human Src (Homo sapiens, UniProt P12931) | criterion not met
CCOc1ccccc1-c1sc2c(NN=Cc3cc(OC)c(O)c(OC)c3)ncnc2c1C | Recombinant human Src (Homo sapiens, UniProt P12931) | criterion met
CCOc1ccccc1-c1sc2c(NN=Cc3nccn3C)ncnc2c1C#N | Recombinant human Src (Homo sapiens, UniProt P12931) | criterion not met
CCOc1ccccc1-c1sc2c(NN=Cc3ccoc3)ncnc2c1O | Recombinant human Src (Homo sapiens, UniProt P12931) | criterion met
CCOc1ccccc1-c1sc2c(NN=Cc3ccccc3Cl)ncnc2c1C | Recombinant human Src (Homo sapiens, UniProt P12931) | criterion not met
CCOc1ccccc1-c1sc2c(NN=Cc3ccc(F)cc3)ncnc2c1C#N | Recombinant human Src (Homo sapiens, UniProt P12931) | criterion met
CCOc1ccccc1-c1sc2c(NN=Cc3ccc(OC)c(O)c3)ncnc2c1COCC(O)CO (racemic) | Recombinant human Src (Homo sapiens, UniProt P12931) | criterion not met
CCOc1ccccc1-c1sc2c(NN=Cc3ccc(OC)c(OCCN4CCOCC4)c3)ncnc2c1C | Recombinant human Src (Homo sapiens, UniProt P12931) | criterion met
CCOc1ccccc1-c1sc2c(NN=Cc3cc(OC)c(OC)c(OC)c3)ncnc2c1C | Recombinant human Src (Homo sapiens, UniProt P12931) | criterion met
CCOc1ccccc1-c1sc2c(NN=Cc3ccsc3)ncnc2c1O | Recombinant human Src (Homo sapiens, UniProt P12931) | criterion met
CCOc1cc(F)ccc1-c1sc2c(NN=Cc3cc(OC)c(OCCN(CC)CC)c(OC)c3)ncnc2c1O | Recombinant human Src (Homo sapiens, UniProt P12931) | criterion met
COc1ccc(C=NNc2ncnc3c(CO)c(-c4ccc(N)cc4)sc23)cc1O | Recombinant human Src (Homo sapiens, UniProt P12931) | criterion not met
